# credit: PubChem BioAssay (NCI)

System: A549 NSCLC
ASSAY NAME: NCI tumour cell line growth inhibition, 48 h
PARAMETER: TGI

- CO[C@H]1C[C@@H]2CC[C@@H](C)[C@@](O)(O2)C(=O)C(=O)N2CCCC[C@H]2C(=O)O[C@H]([C@H](C)C[C@@H]2CC[C@@H](OC(=O)C(C)(CO)CO)[C@H](OC)C2)CC(=O)[C@H](C)/C=C(\C)[C@@H](O)[C@@H](OC)C(=O)[C@H](C)C[C@H](C)\C=C/C=C/C=C/1C: > 10 µM
- CC(C)(C)c1cc(C(=O)Nc2ccccc2C(=O)NCCN)cc(C(C)(C)C)c1: 4.2 µM
- CCC(NC(C)c1ccccc1)C(=O)c1ccc(OCc2ccccc2)c(OCc2ccccc2)c1 (centres undefined): > 100 µM
- COC(=O)c1ccc2c(c1)CC1(C2)Cc2cc3c(cc2C1)CCC3: > 100 µM
- COc1cc2c(c(OC)c1OC)-c1ccc(NN(C(=O)c3ccccc3)C(=O)c3ccccc3)c(=O)cc1[C@@H](NC(C)=O)CC2 (tested in a mixture with another compound): > 100 µM
- CN(C)CCNc1ccc2ncn3c4ccccc4c(=O)c1c23: 5.79 µM
- CN(C)c1ccc(/C=C\c2ccnc3ccccc23)cc1: > 100 µM
- [N-]=[N+]=Nc1ccccc1-c1ccccc1[N+](=O)[O-]: > 100 µM
- NC(N)=N/N=C/c1c(-c2ccsc2)nc2n1CCS2: > 100 µM

* * *

Reported values of TGI for individual entries
Test system: OVCAR-5 ovarian
ASSAY NAME: NCI tumour cell line growth inhibition, 48 h
PARAMETER: TGI

• COc1cc(OC2OC(CO)C(O)C(O)C2O)c2c(O)c3c(=O)cc(C)oc3cc2c1 (centres undefined) = > 100 µM
• Cc1ccc(NC(=O)CCCC(=O)CC(=O)c2ccc(Br)cc2)cc1 = > 100 µM
• CC(C)=CCc1cc2c(cc1O)C1=C(C(=O)C3=C(C1=O)S(=O)(=O)CCN3)C(C=C(C)C)O2 (centres undefined) = 5.93 µM
• NC(=O)c1ccc2c(c1)-c1nc-2nc2[n-]c(nc3nc(nc4[n-]c(n1)c1ccc(C(N)=O)cc41)-c1ccc(C(N)=O)cc1-3)c1ccc(C(N)=O)cc21.[Co+2] = > 50 µM
• CSc1ccc(C2=C(c3ccccc3)C(=O)OC2)cc1 = > 100 µM
• O=C(Nc1ccc(Oc2ccc(F)cc2)cc1)[C@@H]1C[C@@H](Cc2ccc(F)cc2)CN1C(=O)Cn1ccnn1 = 17.7 µM
• Cc1ccc(S(=O)c2cccs2)cc1 (centres undefined) = > 100 µM
• O=C1C(c2ccccc2)=C(c2ccccc2)C(c2ccc(Cc3ccc(C4=C(c5ccccc5)C(=O)C(c5ccccc5)=C4c4ccccc4)cc3)cc2)=C1c1ccccc1 = > 100 µM
• COc1cc(/C=C2\C(=O)N(Cc3ccc(Cl)cc3)c3ccccc32)cc(OC)c1OC = 14.5 µM

* * *

Test system: T-47D breast
ASSAY NAME: NCI tumour cell line growth inhibition, 48 h
PARAMETER: TGI (µM)

- O[C@]12C=C(c3nccc4c3[nH]c3ccccc34)[C@@H]3CCN(CCCC/C=C\CC1)C[C@@]31CC3/C=C\CCCCN3[C@H]12 (stereo partly specified): 4.67
- COc1cc(CNCCCCCCN2C(=O)c3cccc4cccc(c34)C2=O)ccc1O: 14.3
- CCCCOCCOCCOC1=CC(=O)c2c(O)ccc(O)c2C1=O: 6.16
- CSc1nc(=S)[nH]c2c1c(C)nn2-c1ccccc1: 62.5
- CN1CCN(CC(=O)N(C)c2ccc(N=C(c3ccccc3)c3c(O)[nH]c4ccc(C#N)cc34)cc2)CC1: 41.1
- O=C(Nc1ccc(Oc2ccc3nc(NC(=O)c4ccco4)[nH]c3c2)cc1)Nc1cc(C(F)(F)F)ccc1F: 8.19
- CS(=O)(=O)N1CC(CCl)c2ccc(NO)cc21 (stereo unspecified): 60.1
- CC(=O)OCC1OC(n2c(=S)n(-c3ccc([N+](=O)[O-])cc3)c(=O)c3ccccc32)C(OC(C)=O)C(OC(C)=O)C1OC(C)=O (stereo unspecified): 74.3
- CCCCN(CCCC)C(=O)[C@H](CC)[C@@H]1CC[C@@H](C)[C@@H]([C@H](C)[C@@H](O)[C@@H](C)C(=O)[C@H](CC)C2O[C@]3(C=C[C@@H](O)[C@]4(CC[C@@](C)([C@H]5CC[C@](O)(CC)[C@H](C)O5)O4)O3)[C@H](C)C[C@@H]2C)O1 (stereo partly specified): 63.8

* * *

Tested on: RPMI-8226 leukemia
ASSAY NAME: NCI tumour cell line growth inhibition, 48 h
PARAMETER: TGI

• COc1ccc(Nc2nc3ccccc3n3cccc23)cc1OC = 54.3 µM
• CCNC(=O)C(C)C1CCC2(C)C=CC(=O)C(C)=C2C1O (stereo not given) = > 100 µM
• Cc1ccc(S(=O)c2cccs2)cc1 (stereo not given) = > 100 µM
• Cc1ccc(NC(=O)CCc2nc(=S)[nH][nH]2)cc1 = > 100 µM
• O=C1CCN2c3ccccc3[C@H]3Cc4cccc(c4[C@@H]2C3)CCO1 = > 100 µM

* * *

Reported values of log10 of TGI for individual entries
Tested on: IGROV1 ovarian
ASSAY NAME: NCI tumour cell line growth inhibition, 48 h
Where a SMILES comes first, the peptide text is derived from it. The star is where a group is joined. Trt = c1ccc(C(c2ccccc2)(c2ccccc2)*)cc1; Cbz = O=C(OCc1ccccc1)*
PARAMETER: log10 of TGI (log10 of the value in µM)

* CCOC(=O)C(C)(NC(=O)c1ccc(NCc2ccc3nc(NC(=O)c4ccccc4)nc(NC(=O)c4ccccc4)c3c2)cc1)C(=O)OCC | 1.80
* CN1CCN(CC(=O)N(C)c2ccc(N=C(c3ccccc3)c3c(O)[nH]c4ccc(C#N)cc34)cc2)CC1 | 1.19
* COC(=O)C(CO)NC(=O)C(CSC(c1ccccc1)(c1ccccc1)c1ccccc1)NC(=O)OCc1ccccc1 (centres undefined) (Cbz-Cys(Trt)-Ser-OMe; configuration not given here) | 1.57
* O=S1(=O)N2CN3CN(C2)CN1C3 | 2.85
* CC(C)(CN1C(=O)C(Cl)=C(Cl)C1=O)CN1C(=O)C(Cl)=C(Cl)C1=O | 1.61
* CC(C)=CCc1cc2c(cc1O)C1=C(C(=O)C3=C(C1=O)S(=O)(=O)CCN3)C(C=C(C)C)O2 (centres undefined) | 0.68
* COc1cc2c(c(OC)c1OC)-c1ccc(SC)c(=O)cc1[C@@H](NCc1ccc(F)cc1)CC2 | 1.88
* C=C1C(=O)O[C@H]2[C@H]1CC/C(COC(=O)c1cc(OC)c(OC)c(OC)c1)=C\CC[C@@]1(C)O[C@@H]21 | 0.31

* * *

Tested on: SK-OV-3 ovarian
ASSAY NAME: NCI tumour cell line growth inhibition, 48 h
Reported values of log10(TGI) for individual entries
PARAMETER: log10(TGI) (log10 of the value in µM)

- CC(=O)Nc1ccc(C(=O)CCl)cc1: 1.45
- CN(C)c1ccc(/C=C/C(=O)c2ccc(O)cc2)cc1: 1.79
- CCN1CCN(c2nc(C)cc(N(CCCNc3ccnc4cc(Cl)ccc34)Cc3ccc4c(c3)OCO4)n2)CC1: 0.83
- COc1cc(CNCCCCCCN2C(=O)c3cccc4cccc(c34)C2=O)ccc1O: 1.39
- O=C1/C(=C/c2ccc(Cl)c(Cl)c2)CN(C(=O)C(Cl)Cl)C/C1=C\c1ccc(Cl)c(Cl)c1: 0.26

* * *

Tested on: 786-0 renal
ASSAY NAME: NCI tumour cell line growth inhibition, 48 h; in the data active means GI50 below about 0.43 µM; inactive means the rest
Outcome codes: active, inactive

* CN=C(N)c1ccc(N=C(N)c2ccc(-c3ccc(C(N)=Nc4ccc(C(N)=NC)cc4)cc3)cc2)cc1 | inactive
* COc1cc(/C=C2\C(=O)N(Cc3ccc(Cl)cc3)c3ccccc32)cc(OC)c1OC | inactive
* C#Cc1cccc(Nc2ncnc3cc(NC(=O)CCl)ccc23)c1 | inactive
* C[C@@]1([C@H](OC(=O)c2ccccc2)C(N)=O)CO1 | inactive
* CC(=O)Nc1ccc(C(=O)CCl)cc1 | inactive
* CCOC(=O)c1c(-c2ccccc2)[n+](=O)c2cc(Cl)c(Cl)cc2n1[O-] | inactive
* CSC1=NC(=Nc2c(C)cccc2C)C2(CCC(C(C)(C)C)CC2)N1c1ccc(Cl)cc1 (configuration not stated) | inactive
* c1ccc(-c2oc(-c3ccccc3)c(CN3CCCCC3)c2CN2CCCCC2)cc1 | inactive
* O=C1Nc2ccc(Cl)cc2/C1=C\c1c(-c2ccc(Cl)cc2)nc2sc(C3CC3)nn12 | inactive
* COc1cc2oc(-c3cccc(C(=O)Nc4ccc(Cl)cc4)c3)cc(=O)c2c(OC)c1OC | inactive
* c1cc(N[C@@H]2CCNC2)nc(-c2cnc3ccc(-c4cn[nH]c4)cn23)c1 | inactive
* CN1CCN(CC(=O)N(C)c2ccc(N=C(c3ccccc3)c3c(O)[nH]c4ccc(C#N)cc34)cc2)CC1 | inactive
* COc1ccc2nc3cc(Cl)ccc3c(NCCCNCCO)c2c1 | inactive
* CCN1CCN(c2nc(C)cc(N(CCCNc3ccnc4cc(Cl)ccc34)Cc3ccc4c(c3)OCO4)n2)CC1 | inactive
* O=C1NC(=S)S/C1=C\c1cn(-c2ccccc2)nc1-c1ccccc1 | inactive
* O=C1CC(c2c[nH]c3ccc(F)cc23)C(=O)N1 (configuration not stated) | inactive
* CC(C)(C)c1cc(C(=O)Nc2ccccc2C(=O)NCCN)cc(C(C)(C)C)c1 | inactive
* COc1cccc(/C=C/C(=O)c2ccc3cc(OC)ccc3c2)c1 | inactive
* Oc1ccc(Cl)cc1C(c1cc(Cl)ccc1O)C(Cl)(Cl)Cl | inactive
* O=C1NC(=NCCc2ccc(F)cc2)S/C1=C\c1ccc2ncccc2c1 | inactive
* COc1ccc(-c2cc(-c3ccc(Nc4nc(Nc5ccccc5)nc(Nc5ccc(Cl)cc5)n4)cc3)nc(N)n2)cc1 | inactive
* COc1cnc2c(c1)C(=O)c1c-2n(CCCNC2=NCCS2)c(=O)c2cc(F)ccc12 | active
